Molecular target: UniProt Q96RI0
Sequence (Q96RI0 18-385): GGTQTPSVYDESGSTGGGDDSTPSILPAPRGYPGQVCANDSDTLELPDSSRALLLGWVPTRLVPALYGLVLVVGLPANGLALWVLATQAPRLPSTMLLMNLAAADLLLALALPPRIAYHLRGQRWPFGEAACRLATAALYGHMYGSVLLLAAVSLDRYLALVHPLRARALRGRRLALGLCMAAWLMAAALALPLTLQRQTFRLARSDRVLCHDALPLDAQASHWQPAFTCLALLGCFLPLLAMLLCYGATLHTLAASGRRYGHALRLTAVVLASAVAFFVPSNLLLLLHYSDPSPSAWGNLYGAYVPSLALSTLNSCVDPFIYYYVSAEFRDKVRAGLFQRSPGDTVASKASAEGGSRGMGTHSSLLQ
Assay: FLIPR assay in PAR4-expressing HEK293 cells (PAR4 antagonist activity, calcium mobilization)
Type: cell-based
Details: FLIPR assay as described in Example A
Excerpt: The FLIPR assay is an exemplary in vitro assay for measuring the activity of the PAR4 antagonists of the present invention. In this assay, intracellular calcium mobilization is induced in PAR4 expressing cells by a PAR4 agonist and calcium mobilization is monitored. See, e.g., Example A. […]
MEASURED ATTRIBUTE: pIC50
Scale for pIC50: -log10 of concentration given in mol/L; no unit attached.

// below: answered compounds
1) COc1nn2cc(-c3cc4cc(C)ccc4o3)nc2s1
8.16
2) COc1cc(OCc2cccc(OCc3cc(C(F)(F)F)ccc3C)c2)c2cc(-c3cn4nc(OC)sc4n3)oc2c1
8.35
3) CSc1nn2cc(-c3nc4ccc(OCc5ccncc5)cc4o3)nc2s1
6.04
4) CCOc1nn2cc(-c3nc4ccccc4s3)nc2s1
5.75
5) CSc1nn2cc(-c3nc4c(N)cccc4o3)nc2s1
7.31

Problem: Return reported pIC50; argument: CSc1nn2cc(-c3nc4ccccc4s3)nc2s1
Result: 7.89

Problem: Return reported pIC50; argument: CCOC(=O)COc1cccc2cc(-c3cn4nc(CC)sc4n3)oc12
Result: 6.23

Problem: Return reported pIC50; argument: COc1cc(OCc2ccc(F)cc2)c2cc(-c3cn4nc(C(C)(F)F)sc4n3)oc2c1
Result: 7.25

Problem: Return reported pIC50; argument: CCc1nn2cc(-c3cc4cccc(OC)c4o3)nc2s1
Result: 8.07
